target: T1, human cMET (human, UniProt P08581 25-932, limits assumed); assay: ELISA on human cMET, ratio against the parental antibody
T1 construct: also called hMET; HGFR
T1 sequence (P08581 25-932 limits assumed): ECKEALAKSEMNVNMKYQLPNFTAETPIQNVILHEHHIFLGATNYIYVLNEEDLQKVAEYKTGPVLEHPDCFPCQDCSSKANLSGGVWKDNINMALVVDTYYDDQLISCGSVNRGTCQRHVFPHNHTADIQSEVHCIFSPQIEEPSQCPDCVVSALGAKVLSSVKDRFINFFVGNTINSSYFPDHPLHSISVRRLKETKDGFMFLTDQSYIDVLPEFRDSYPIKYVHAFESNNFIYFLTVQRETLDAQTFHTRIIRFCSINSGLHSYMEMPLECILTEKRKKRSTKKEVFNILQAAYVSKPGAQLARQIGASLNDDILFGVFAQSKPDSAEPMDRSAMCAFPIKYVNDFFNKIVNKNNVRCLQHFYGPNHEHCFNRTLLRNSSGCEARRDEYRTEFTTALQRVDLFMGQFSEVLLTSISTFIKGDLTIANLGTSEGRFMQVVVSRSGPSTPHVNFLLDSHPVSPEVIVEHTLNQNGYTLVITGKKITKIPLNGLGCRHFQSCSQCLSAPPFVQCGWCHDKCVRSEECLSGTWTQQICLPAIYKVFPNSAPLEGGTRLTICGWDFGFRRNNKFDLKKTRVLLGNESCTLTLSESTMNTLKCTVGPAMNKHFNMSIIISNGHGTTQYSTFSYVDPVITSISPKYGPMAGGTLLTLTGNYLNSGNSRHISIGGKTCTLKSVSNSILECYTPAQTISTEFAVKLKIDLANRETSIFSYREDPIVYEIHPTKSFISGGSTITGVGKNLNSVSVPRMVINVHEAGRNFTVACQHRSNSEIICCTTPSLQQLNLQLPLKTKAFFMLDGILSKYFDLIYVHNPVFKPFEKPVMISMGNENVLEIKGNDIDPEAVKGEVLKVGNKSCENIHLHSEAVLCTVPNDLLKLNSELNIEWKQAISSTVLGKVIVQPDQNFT
Assignment: determine reported ELISA hMET vs parental for the given binders.

## Task Quick one: ELISA hMET vs parental of humanized P3D12 antibody, HC SEQ ID NO: 108 (P3D12 VH-cdr) / LC SEQ ID NO: 46 (P3D12 VL-ven) (antibody, V domains shown) VH: QVQLVQSGAEVKKPGASVKVSCKASGYTFTSYWMHWVKQAPGQGLDWIGYIKPSTDNTEYNQKFKDKATLTADKSTSTAYMELSSLRSEDTAVYYCARSYGNYPLMDYWGQGTTVTVSS VL: QIVLTQSPATMSASPGERVTLSCSASSSVTSNYLYWYQQKPGSSPRLWIYSTSNLASGVPARFSGSGSGTSYTLTISRMEPEDAASYFCHQWSSYPPTFGSGTKLEIKR ?
## Result 1.1

## Task Quick one: ELISA hMET vs parental of humanized P3D12 antibody, HC SEQ ID NO: 108 (P3D12 VH-cdr) / LC SEQ ID NO: 47 (P3D12 VL-fra) (antibody, V domains shown) VH: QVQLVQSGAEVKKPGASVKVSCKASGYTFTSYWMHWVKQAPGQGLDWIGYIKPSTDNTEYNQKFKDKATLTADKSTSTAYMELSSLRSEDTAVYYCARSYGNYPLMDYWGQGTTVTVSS VL: QIVLTQSPAILSLSPGERATLSCSASSSVTSNYLYWYQQKPGSSPKLLIYSTSNLASGVPARFSGSGSGTSYTLTISSLEAEDAASYFCHQWSSYPPTFGSGTKLEIKR ?
## Result 0.7

## Task Quick one: ELISA hMET vs parental of humanized P3D12 antibody, HC SEQ ID NO: 105 (P3D12 VH-fra) / LC SEQ ID NO: 46 (P3D12 VL-ven) (antibody, V domains shown) VH: QVQLQQSGAEVKKPGASVKVSCKASGYTFTSYWMHWVKQRPGQGLDWIGYIKPSTDNTEYNQKFKDRVTLTADKSTSTAYMQLSNLISEDTAVYYCARSYGNYPLMDYWGQGTSVTVSS VL: QIVLTQSPATMSASPGERVTLSCSASSSVTSNYLYWYQQKPGSSPRLWIYSTSNLASGVPARFSGSGSGTSYTLTISRMEPEDAASYFCHQWSSYPPTFGSGTKLEIKR ?
## Result 1.7

## Task Quick one: ELISA hMET vs parental of humanized P3D12 antibody, HC SEQ ID NO: 105 (P3D12 VH-fra) / LC SEQ ID NO: 47 (P3D12 VL-fra) (antibody, V domains shown) VH: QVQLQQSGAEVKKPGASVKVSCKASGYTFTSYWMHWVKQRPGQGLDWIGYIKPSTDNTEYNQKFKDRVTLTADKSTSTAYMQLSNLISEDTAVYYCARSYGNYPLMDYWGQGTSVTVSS VL: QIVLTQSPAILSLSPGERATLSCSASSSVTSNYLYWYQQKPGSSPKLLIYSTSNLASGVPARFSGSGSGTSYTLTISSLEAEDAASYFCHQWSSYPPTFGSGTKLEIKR ?
## Result 1.7

## Task Quick one: ELISA hMET vs parental of humanized P3D12 antibody, HC SEQ ID NO: 107 (P3D12 VH-abb/sdr) / LC SEQ ID NO: 47 (P3D12 VL-fra) (antibody, V domains shown) VH: QVQLVQSGAEVKKPGASVKVSCKASGYTFTSYWMHWVKQAPGQGLDWMGYIKPSTDNTEYAQKFQGRVTLTADKSTSTAYMELSSLRSEDTAVYYCARSYGNYPLMDYWGQGTTVTVSS VL: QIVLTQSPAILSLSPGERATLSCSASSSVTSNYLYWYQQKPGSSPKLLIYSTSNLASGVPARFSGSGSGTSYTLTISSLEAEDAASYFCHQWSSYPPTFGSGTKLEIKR ?
## Result 1

# credit: patent US20210163604A1
